# System: MOLM-13
# Design: species or system AML cell lines (8); Primary HTS, single concentration about 10 uM, Cell Titer Glo viability; log10 luminescence, per cent inhibition relative to cycloheximide control
# runParameters: 72 h, relative to cycloheximide control, log10 luminescence; inhibitor
Reported MOLM-13 %inh values for a set of molecules
Kindly answer with a numeric value in %, unit omitted.

Before answering, review these 2 worked examples.
Notebook: O=C(Nc1n[nH]c2cc(-c3ccc(F)cc3)ccc12)C1CC1 , MOLM-13 %inh read as 13.56

Notebook: C[C@]12CCC(=O)C=C1CC[C@@H]1[C@@H]2[C@@H](O)C[C@@]2(C)[C@H]1CC[C@]2(O)C(=O)COP(=O)(O)O [SJ000286156-3, HYDROCORTISONE SODIUM PHOSPHATE] , MOLM-13 %inh read as 15.41

More entries:
Notebook: Cc1nnc(C(C)C)n1[C@@H]1C[C@H]2CC[C@@H](C1)N2CC[C@H](NC(=O)C1CCC(F)(F)CC1)c1ccccc1 , MOLM-13 %inh read as -2.386
